Answer each item with its documented pIC50.
# tgt: OX1 (Homo sapiens)
# Sequence (O43613 whole entry): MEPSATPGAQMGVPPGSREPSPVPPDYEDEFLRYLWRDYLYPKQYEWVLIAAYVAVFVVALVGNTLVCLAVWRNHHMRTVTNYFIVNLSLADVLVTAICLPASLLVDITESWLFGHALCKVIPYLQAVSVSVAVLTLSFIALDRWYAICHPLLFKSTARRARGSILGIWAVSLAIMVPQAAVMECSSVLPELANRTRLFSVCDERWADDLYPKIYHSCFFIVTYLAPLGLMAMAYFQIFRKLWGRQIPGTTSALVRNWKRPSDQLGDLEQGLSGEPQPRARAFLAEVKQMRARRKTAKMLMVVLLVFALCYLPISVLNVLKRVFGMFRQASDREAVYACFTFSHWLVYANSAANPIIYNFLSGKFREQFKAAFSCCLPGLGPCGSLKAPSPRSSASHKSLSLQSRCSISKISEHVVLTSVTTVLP
# assay.summary: Orexin receptor cell-based functional assay, [Ca2+]i by FLIPR, CHO-OX1 cells
# test.settings: FLIPR calcium, antagonism of EC90 of [OX], read-out: OXI, IC50
Answers are plain numbers, as −log10 of the molar value.

Guide cases for pIC50, answers given:
molecule	pIC50
C[C@@H]1CC(F)(F)CN(C(=O)c2nn(C)nc2-c2ccccc2)[C@@H]1CNc1ncc(C(F)(F)F)cn1 [Compound 82]	7.35
C[C@@H]1CC(F)(F)CN(C(=O)c2cc(C#N)ccc2-n2nccn2)[C@@H]1CNc1ncc(C(F)(F)F)cn1 [Compound 14]	7.28
COc1cccc(-c2cn(C)nc2C(=O)N2CC(F)(F)C[C@@H](C)[C@H]2CNc2cnc(C(F)(F)F)cn2)n1 [Compound 136]	7.40
C[C@@H]1CC(F)(F)CN(C(=O)c2nn(C)cc2-c2ccc(F)cc2)[C@@H]1CNc1cnc(C(F)(F)F)cn1 [Compound 121]	8.30

Please give pIC50, item by item, for the list that follows.
1. Cc1ccc(-n2nccn2)c(C(=O)N2CC(F)(F)C[C@@H](C)[C@H]2CNc2ncc(C(F)(F)F)cn2)n1 [Compound 12]
2. Cc1ccc(-c2ncccn2)c(C(=O)N2CC(F)(F)C[C@@H](C)[C@H]2CNc2ncc(C(F)(F)F)cn2)c1 [Compound 55]
3. Cc1cnc(-c2cn(C)nc2C(=O)N2CC(F)(F)C[C@@H](C)[C@H]2CNc2ncc(C(F)(F)F)cn2)nc1 [Compound 219]
4. C[C@@H]1CC(F)(F)CN(C(=O)c2nn(C)nc2-c2ccc(F)cc2)[C@@H]1CNc1ncc(C(F)(F)F)cn1 [Compound 81]
5. CCc1cnc(NC[C@@H]2[C@H](C)CC(F)(F)CN2C(=O)c2nn(C)cc2-c2ccccc2)nc1 [Compound 20]
6. Cc1cccc(-c2cn(C)nc2C(=O)N2CC(F)(F)C[C@@H](C)[C@H]2CNc2cnc(C(F)(F)F)cn2)c1 [Compound 123]
7. C[C@@H]1CC(F)(F)CN(C(=O)c2nn(C)cc2-c2ncc(F)cn2)[C@@H]1COc1ccc(C(F)(F)F)cn1 [Compound 248]

Reply |
[7.82, 7.52, 6.92, 6.99, 7.06, 8.70, 7.30]

Please give pIC50, item by item, for the list that follows.
1. Cc1ccc(C#CC2CC2)c(C(=O)N2CC(F)(F)C[C@@H](C)[C@H]2CNc2ncc(C(F)(F)F)cn2)n1 [Compound 234]
2. Cc1ccc(-n2nccn2)c(C(=O)N2CC(F)(F)C[C@@H](C)[C@H]2CNc2cnc(C(F)(F)F)cn2)n1 [Compound 153]
3. Cc1ccc(-c2ncccn2)c(C(=O)N2CC(F)(F)C[C@@H](C)[C@H]2COc2ccc(C(F)(F)F)cn2)n1 [Compound 215]
4. Cc1ccc(-n2nccn2)c(C(=O)N2CC(F)(F)C[C@@H](C)[C@H]2CNc2ccc(C(F)(F)F)cn2)n1 [Compound 174]
5. C[C@@H]1CC(F)(F)CN(C(=O)c2nn(C)cc2-c2cccnc2)[C@@H]1CNc1cnc(C(F)(F)F)cn1 [Compound 155]

Reply |
[7.54, 7.57, 8.30, 8.40, 7.42]

Please give pIC50, item by item, for the list that follows.
1. C[C@@H]1CC(F)(F)CN(C(=O)c2nn(C)cc2-c2ncc(F)cn2)[C@@H]1CNc1ncc(C(F)(F)F)cc1F [Compound 242]
2. C[C@@H]1CC(F)(F)CN(C(=O)c2nn(C)cc2-c2ncccn2)[C@@H]1COc1ncc(C(F)(F)F)cn1 [Compound 222]
3. Cc1ccc(-c2cn(C)nc2C(=O)N2CC(F)(F)C[C@@H](C)[C@H]2CNc2cnc(C(F)(F)F)cn2)nc1 [Compound 133]
4. Cc1noc(-c2ccc(Cl)cc2C(=O)N2CC(F)(F)C[C@@H](C)[C@H]2CNc2ncc(C(F)(F)F)cn2)n1 [Compound 19]
5. Cc1ccc(-c2ncccn2)c(C(=O)N2CC(F)(F)C[C@@H](C)[C@H]2CNc2ncc(C(F)(F)F)cn2)n1 [Compound 17]

Reply |
8.30
7.59
7.96
8.00
8.10

Please give pIC50, item by item, for the list that follows.
1. Cc1nc(C(=O)N2CC(F)(F)C[C@@H](C)[C@H]2CNc2ncc(C(F)(F)F)cn2)c(-c2cccc(F)c2)s1 [Compound 67]
2. C[C@@H]1CC(F)(F)CN(C(=O)c2cn(C)nc2-c2ccccn2)[C@@H]1CNc1ncc(C(F)(F)F)cn1 [Compound 93]
3. C[C@@H]1CC(F)(F)CN(C(=O)c2nn(C)cc2-c2ccccc2)[C@@H]1CNc1ncc(Cl)cn1 [Compound 22]

Reply |
8.30
6.81
8.15

Ask | Respond only with pIC50 recorded for C[C@@H]1CC(F)(F)CN(C(=O)c2cc(F)ccc2-c2ncccn2)[C@@H]1CNc1ncc(C(F)(F)F)cn1 [Compound 54]
Reply | 7.37
